Attribution: patent US20210054097A1

measured_target: human plasma-derived Factor X zymogen (human, UniProt P00742 41-179; P00742 183-488)
Sequence (P00742 41-179, chain 1 of 2): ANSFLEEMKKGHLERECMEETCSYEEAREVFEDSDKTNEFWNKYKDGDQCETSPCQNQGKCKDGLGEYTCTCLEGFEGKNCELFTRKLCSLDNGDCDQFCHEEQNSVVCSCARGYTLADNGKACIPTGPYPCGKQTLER
Sequence (P00742 183-488, chain 2 of 2): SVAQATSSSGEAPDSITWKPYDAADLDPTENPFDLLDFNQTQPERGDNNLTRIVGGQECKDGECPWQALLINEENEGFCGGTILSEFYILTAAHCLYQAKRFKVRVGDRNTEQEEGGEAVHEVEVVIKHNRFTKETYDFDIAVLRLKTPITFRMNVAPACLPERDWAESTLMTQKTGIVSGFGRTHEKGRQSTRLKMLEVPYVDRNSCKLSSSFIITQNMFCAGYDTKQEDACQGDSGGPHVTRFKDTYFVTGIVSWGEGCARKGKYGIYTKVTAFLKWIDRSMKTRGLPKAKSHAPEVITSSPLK
measurement_protocol: cell-based or functional assay
attribute_measured: Increase in FX activation (fold)
Record the value in fold, omitting the unit from your answer.

binder	Increase in FX activation (fold)
Nb 701C06 (VHH, monovalent Nanobody; not shown: C-terminal FLAG3 and HIS6 tag) VHH: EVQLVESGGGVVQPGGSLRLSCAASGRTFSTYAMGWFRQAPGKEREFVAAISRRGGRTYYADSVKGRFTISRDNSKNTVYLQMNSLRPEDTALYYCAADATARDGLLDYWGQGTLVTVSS	26
Nb 702C12 (VHH, monovalent Nanobody; not shown: C-terminal FLAG3 and HIS6 tag) VHH: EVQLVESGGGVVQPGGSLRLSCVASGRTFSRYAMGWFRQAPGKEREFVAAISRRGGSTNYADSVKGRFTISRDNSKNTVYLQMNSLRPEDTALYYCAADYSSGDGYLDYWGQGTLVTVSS	18.9
Nb 701B09 (VHH, monovalent Nanobody; also called Nb 701609; not shown: C-terminal FLAG3 and HIS6 tag) VHH: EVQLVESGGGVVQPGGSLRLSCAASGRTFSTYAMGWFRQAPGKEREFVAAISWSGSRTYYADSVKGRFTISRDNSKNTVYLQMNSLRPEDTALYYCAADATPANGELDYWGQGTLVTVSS	83

Continue with the next binder.
Query: Request the reported Increase in FX activation (fold) associated with Nb 701D07 (VHH, monovalent Nanobody; not shown: C-terminal FLAG3 and HIS6 tag) VHH: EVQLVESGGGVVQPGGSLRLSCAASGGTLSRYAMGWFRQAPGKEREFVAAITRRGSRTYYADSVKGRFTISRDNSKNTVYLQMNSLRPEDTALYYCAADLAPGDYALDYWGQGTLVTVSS
Response: 17.2
